- SYSTEM: ALPP (Homo sapiens, UniProt P05187)
- Sequence (P05187 with tags, fused parts or gaps): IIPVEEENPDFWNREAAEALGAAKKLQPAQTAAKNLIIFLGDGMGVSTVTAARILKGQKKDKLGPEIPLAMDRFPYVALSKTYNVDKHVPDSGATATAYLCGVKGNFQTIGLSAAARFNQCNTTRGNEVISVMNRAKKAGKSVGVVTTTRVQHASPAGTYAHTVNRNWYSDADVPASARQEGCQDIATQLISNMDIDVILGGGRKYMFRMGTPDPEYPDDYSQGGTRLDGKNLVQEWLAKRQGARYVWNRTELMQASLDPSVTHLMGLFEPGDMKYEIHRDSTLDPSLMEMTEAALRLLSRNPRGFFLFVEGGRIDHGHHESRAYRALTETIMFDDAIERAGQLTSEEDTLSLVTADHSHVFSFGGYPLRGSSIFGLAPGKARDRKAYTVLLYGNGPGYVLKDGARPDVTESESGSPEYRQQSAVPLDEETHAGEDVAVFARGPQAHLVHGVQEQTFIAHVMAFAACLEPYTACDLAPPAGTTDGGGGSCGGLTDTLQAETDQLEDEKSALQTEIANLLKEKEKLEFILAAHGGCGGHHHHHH
- TEST_PROTOCOL: BLI binding kinetics, human ALPP immobilised on AR2G sensors (KD / KD apparent)
- CONDITIONS_USED: VHH domains
MEASURED_PROPERTY: hALPP Kd

C07: ALPP/ALPPL2 targeting VHH domain, SEQ ID NO: 25 (protein) VHH: QVQLVESGGGLVQAGESLRLACAASGTIFSGNAVGWYRQAPEKQREWVSSITDYGDTDYAEAVKGRFTISRDNAKNTVYLQMNSLKPEDTAVYYCYVYQRGESEEYWGQGTQVTVSS	0.000028 s⁻¹
F08: ALPP/ALPPL2 targeting VHH domain, SEQ ID NO: 35 (protein) VHH: QVQLVESGGGSVQAGGSLRLSCAASGPSLSNYAMGWFRQAPGKEREFVAGISWGGGRTSYTDSVKGRFTISRDNAKNTVYLQMNNLKPEDTGVYYCAGRYGRGRNVEYEYDYWGQGTQVTVSS	<1e-07 s⁻¹
A08: ALPP targeting VHH domain, SEQ ID NO: 18 (protein) VHH: QVQLVESGGGLVQAGESLRLACAASGTIFSGNAVGWYRQAPEKQREWVSSITDYGDTDYAEAVKGRFTISRDNAKNTVYLQMNSLKPEDTAVYYCYVYQRGESEEYWGQGTKVTVSS	0.000012 s⁻¹
E10: ALPP/ALPPL2 targeting VHH domain, SEQ ID NO: 31 (protein) VHH: QVQLVESGGGLVQAGGSLRLSCAVSGRALSDYNIGWFRQAPGKEREFVARKTWDGSSTRYDDSVKGRFTVSIEDAKNTAYLQMSSLKTEDTAVYYCAAGRYSRARGWEYDYWGQGTQVTVSS	<1e-07 s⁻¹
E12: ALPP targeting VHH domain, SEQ ID NO: 33 (protein) VHH: QVQLVESGGGSVQAGGSLRLSCAASGPSISNFAMGWFRQAPGKEREFVAGISWGGGRTNYLDSVKGRFTISRDNAKNMVHLQMNSLKPEDTTVYYCAGRYGRGRDVEYEYDYWGQGTQVTVSS	0.000028 s⁻¹
D08: ALPP targeting VHH domain, SEQ ID NO: 27 (protein) VHH: QVHLVESGGGSVQAGGSLRLSCAASGPSLSNYAMGWFRQAPGKEREFVAGISWGGGRTSYTDSVKGRFTISRDNAKNTVYLQMNNLKPEDTGVYYCAGRYGRGRNVEYEYDYWGQGTKVTVSS	<1e-07 s⁻¹
